target: CYP2C19 (Homo sapiens, UniProt P33261); experiment: Inhibition of CYP2C19 (unknown origin); assay type: ADME
Sequence (P33261 whole entry): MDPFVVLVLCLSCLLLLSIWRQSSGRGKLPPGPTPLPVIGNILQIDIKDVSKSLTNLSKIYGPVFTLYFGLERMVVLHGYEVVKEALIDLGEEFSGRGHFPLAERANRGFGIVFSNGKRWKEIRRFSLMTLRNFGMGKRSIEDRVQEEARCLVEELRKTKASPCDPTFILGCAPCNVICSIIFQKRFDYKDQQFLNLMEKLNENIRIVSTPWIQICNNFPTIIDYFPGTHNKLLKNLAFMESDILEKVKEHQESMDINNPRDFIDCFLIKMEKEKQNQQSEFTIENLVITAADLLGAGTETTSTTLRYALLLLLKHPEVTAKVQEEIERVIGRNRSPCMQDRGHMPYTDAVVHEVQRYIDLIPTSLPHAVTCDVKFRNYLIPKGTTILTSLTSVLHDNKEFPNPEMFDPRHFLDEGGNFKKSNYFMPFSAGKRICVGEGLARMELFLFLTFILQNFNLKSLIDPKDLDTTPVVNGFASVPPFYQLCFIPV
REPORTED_ENDPOINT: IC50

Input `COCCCOc1cc2c(cc1OC)-c1cc(=O)c(C(=O)O)cn1[C@H](C(C)(C)C)CO2` , output reported IC50.
> 50 µM

====

experiment: Microsomal stability in mouse liver microsomes assessed as intrinsic clearance measured per mg of protein; type: ADME, Microsome; settings: read-out: CLH
REPORTED_ENDPOINT: microsomal CLint

Input `COCCCOc1cc2c(cc1OC)-c1cc(=O)c(C(=O)O)cn1[C@H](C(C)(C)C)CO2` , output reported microsomal CLint.
< 7.5 µL/min/mg
